These entries and their values trace back to patent US9481676B2.

- target: human recombinant serotonin (5-Hydroxytryptamine) 5-HT2C receptor (Homo sapiens)
- Construct: expressed in transfected cells; host or cells: CHO-K1 cells
- Sequence (P28335 33-458): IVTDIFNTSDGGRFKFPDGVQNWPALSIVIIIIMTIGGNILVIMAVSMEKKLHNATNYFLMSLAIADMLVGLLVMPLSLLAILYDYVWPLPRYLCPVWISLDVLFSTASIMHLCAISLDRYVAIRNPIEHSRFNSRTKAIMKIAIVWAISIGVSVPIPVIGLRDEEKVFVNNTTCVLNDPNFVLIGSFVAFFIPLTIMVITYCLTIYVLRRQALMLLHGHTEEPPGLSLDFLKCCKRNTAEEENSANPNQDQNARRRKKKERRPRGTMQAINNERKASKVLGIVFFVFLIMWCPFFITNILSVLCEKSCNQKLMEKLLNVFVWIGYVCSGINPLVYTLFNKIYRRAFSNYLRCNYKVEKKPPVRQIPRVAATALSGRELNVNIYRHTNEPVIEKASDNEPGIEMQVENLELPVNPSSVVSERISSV
- assay explanation: Serotonin 5-HT2C radioligand binding ([3H]Mesulergine)
- stated conditions: compound at 1 μM; read-out: Serotonin (1 μM) 5-HT2C, percent inhibition of specific binding
measurement label: inhibition at 1 µM (%)
Output spec: scalar in %, unitless text.

Cc1ccc2c(c1)c1c(n2CC(=O)NC(C)C)CCN(C)CC1: -2
Cc1ccc2c(c1)c1c(n2CC(O)c2ccncc2)CCN(C)CC1 (centres unmarked): 91
COc1ccc(/C=C/n2c3c(c4cc(Cl)ccc42)CCN(C)CC3)cc1: 98

Challenge: Observed inhibition at 1 µM on human recombinant serotonin (5-Hydroxytryptamine) 5-HT2C receptor (Homo sapiens) for COc1ccc(C#Cn2c3c(c4cc(C)ccc42)CCN(C)CC3)cc1F , please.
Response given: 100

Challenge: Try this compound next: Cc1ccc2c(c1)c1c(n2CC(=O)N2CCOCC2)CCN(C)CC1
Response given: 98

====

# inhibition at 1 µM per entry
- target: human recombinant serotonin (5-Hydroxytryptamine) 5-HT2A receptor (Homo sapiens)
- Construct: expressed in transfected cells; host or cells: CHO-K1 cells
- assay explanation: Serotonin 5-HT2A radioligand binding ([3H]Ketanserin)
- stated conditions: compound at 1 μM; read-out: Serotonin (1 μM) 5-HT2A, percent inhibition of specific binding
Output spec: scalar in %, unitless text.

Guide cases for inhibition at 1 µM, answers given:
C/C(=C\n1c2c(c3cc(C)ccc31)CCN(C)CC2)c1ccc(Cl)cc1Cl: 103
Cc1ccc2c(c1)c1c(n2CC(=O)N2CCNCC2)CCN(C)CC1: -7

Challenge: Entry COc1ccc(/C=C/n2c3c(c4cc(Cl)ccc42)CCN(C)CC3)cc1F : reported inhibition at 1 µM = ?
Response given: 101

Challenge: Try this compound next: CN1CCc2c(n(CC(=O)N3CCOCC3)c3ccc(Cl)cc23)CC1
Response given: -7

Challenge: Try this compound next: Cc1ccc2c(c1)c1c(n2/C=C/c2ccccc2)CCN(C)CC1
Response given: 100

Challenge: Try this compound next: COc1ccc(/C=C/n2c3c(c4cc(Cl)ccc42)CCN(C)CC3)cc1
Response given: 100

Challenge: Try this compound next: CN1CCc2c(n(CC(O)c3ccccc3)c3ccc(Cl)cc23)CC1 (centres unmarked)
Response given: 98

Challenge: Try this compound next: C/C(=C\n1c2c(c3cc(Cl)ccc31)CCN(C)CC2)c1ccc(F)cc1
Response given: 99

====

# inhibition at 1 µM per entry
- target: human recombinant serotonin (5-Hydroxytryptamine) 5-HT6 receptor (Homo sapiens, UniProt P50406)
- Construct: expressed in transfected cells; host or cells: human HeLa cells
- Sequence (P50406 whole entry): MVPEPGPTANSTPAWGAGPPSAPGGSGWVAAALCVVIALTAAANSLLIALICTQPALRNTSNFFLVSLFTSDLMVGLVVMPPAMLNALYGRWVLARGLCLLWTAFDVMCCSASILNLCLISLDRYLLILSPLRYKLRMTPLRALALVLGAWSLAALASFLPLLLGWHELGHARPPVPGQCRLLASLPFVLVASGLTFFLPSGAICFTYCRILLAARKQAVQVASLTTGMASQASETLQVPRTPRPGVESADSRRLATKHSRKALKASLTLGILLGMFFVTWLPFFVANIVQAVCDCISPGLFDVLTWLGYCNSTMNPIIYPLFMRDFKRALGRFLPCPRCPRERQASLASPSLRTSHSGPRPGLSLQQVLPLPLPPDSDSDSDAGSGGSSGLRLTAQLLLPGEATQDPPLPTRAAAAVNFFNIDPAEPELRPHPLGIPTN
- assay explanation: Serotonin 5-HT6 radioligand binding ([3H]LSD)
- stated conditions: compound at 1 μM; read-out: Serotonin (1 μM) 5-HT6, percent inhibition of specific binding
Output spec: scalar in %, unitless text.

C/C(=C\n1c2c(c3cc(C)ccc31)CCN(C)CC2)c1ccc(Cl)cc1: 98
Cc1ccc2c(c1)c1c(n2CC(O)c2ccccc2F)CCN(C)CC1 (centres unmarked): 101
Cc1ccc2c(c1)c1c(n2C(=O)Cc2ccc(F)cc2)CCN(C)CC1: 94
COc1ccc(/C=C/n2c3c(c4cc(C)ccc42)CCN(C)CC3)c(F)c1: 100
C/C(=C\n1c2c(c3cc(Cl)ccc31)CCN(C)CC2)c1cccnc1: 94
CN1CCc2c(n(CC(=O)Nc3ccccc3)c3ccc(Cl)cc23)CC1: 0
CN1CCc2c(n(CC(O)c3ccccc3)c3ccc(Cl)cc23)CC1 (centres unmarked): 99

Challenge: Entry CN1CCc2c(n(/C=C/c3ccc(F)cc3)c3ccc(Cl)cc23)CC1 : reported inhibition at 1 µM = ?
Response given: 103

====

# inhibition at 1 µM per entry
- target: human recombinant adrenergic α1D receptor (Homo sapiens)
- Construct: expressed in transfected cells; host or cells: HEK-293 cells
- assay explanation: Adrenergic alpha1D radioligand binding ([3H]Prozosin)
- stated conditions: compound at 1 μM; read-out: Adrenergic (1 μM) α1D, percent inhibition of specific binding
- Procedure: To evaluate in radioligand binding assays the activity of compounds of the invention, human recombinant adrenergic α1D receptor expressed in human embryonic kidney (HEK-293) cells (Kenny, B. A. et al. Br. J. Pharmacol. 115(6):981, 1995) in a 50 mM Tris-HCl buffer, pH 7.4, was used. Compounds of invention were incubated with 0.6 nM [^3H]Prozosin for 60 min. at 25° C. […] Receptor proteins were filtered and washed, the filters were then counted to determine [^3H]Prozosin specifically bound. […]
Output spec: scalar in %, unitless text.

Cc1ccc2c(c1)c1c(n2CCc2ccccc2)CCN(C)CC1 [Compound No. 62]: 12
CN1CCc2c(n(CC(=O)OCc3ccccc3)c3ccc(Cl)cc23)CC1 [Compound No. 75]: 7
COc1ccc(C(O)Cn2c3c(c4cc(C)ccc42)CCN(C)CC3)c(F)c1 (centres unmarked) [Compound No. 50]: 84
Cc1ccc2c(c1)c1c(n2CCc2ccccc2F)CCN(C)CC1 [Compound No. 63]: 77

// moving on: another record for inhibition at 1 µM
Challenge: Entry Cc1ccc2c(c1)c1c(n2CCc2ccc(Cl)cc2)CCN(C)CC1 [Compound No. 28] : reported inhibition at 1 µM = ?
Response given: 94

====

- target: human recombinant dopamine D2L receptor (Homo sapiens, UniProt P14416)
- Construct: expressed in transfected cells; host or cells: CHO cells
- Sequence (P14416 whole entry): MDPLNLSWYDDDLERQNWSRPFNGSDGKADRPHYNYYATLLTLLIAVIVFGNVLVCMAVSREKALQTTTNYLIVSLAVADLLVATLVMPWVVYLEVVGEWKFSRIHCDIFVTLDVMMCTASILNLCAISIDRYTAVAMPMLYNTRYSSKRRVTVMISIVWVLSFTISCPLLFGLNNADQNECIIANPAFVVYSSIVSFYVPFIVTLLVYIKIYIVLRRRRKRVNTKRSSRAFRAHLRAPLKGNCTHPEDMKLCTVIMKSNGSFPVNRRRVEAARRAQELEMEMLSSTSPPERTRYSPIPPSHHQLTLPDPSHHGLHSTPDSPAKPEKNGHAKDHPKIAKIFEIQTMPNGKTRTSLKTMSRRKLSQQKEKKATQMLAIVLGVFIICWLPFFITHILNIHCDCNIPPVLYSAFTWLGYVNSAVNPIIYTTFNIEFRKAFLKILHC
- assay explanation: Dopamine D2L radioligand binding ([3H]Spiperone)
- stated conditions: compound at 1 μM; read-out: Dopamine (1 μM) D2L, percent inhibition of specific binding
# inhibition at 1 µM per entry
Output spec: scalar in %, unitless text.

Challenge: Entry CN1CCc2c(n(CC(=O)Nc3ccccc3)c3ccc(Cl)cc23)CC1 [Compound No. 73] : reported inhibition at 1 µM = ?
Response given: -14

Challenge: Try this molecule next: CN1CCc2c(n(CC(O)c3ccccc3)c3ccc(Cl)cc23)CC1 (centres unmarked) [Compound No. 24]
Response given: 41

Challenge: Try this molecule next: Cc1ccc2c(c1)c1c(n2/C=C/c2ccccc2F)CCN(C)CC1 [Compound No. 233]
Response given: 73

Challenge: Try this molecule next: Cc1ccc2c(c1)c1c(n2CC(=O)N2CCCCC2)CCN(C)CC1 [Compound No. 32]
Response given: -1

Challenge: Try this molecule next: CN1CCc2c(n(CCc3ccc(C(=O)O)nc3)c3ccc(Cl)cc23)CC1 [Compound No. 21]
Response given: 6

====

# inhibition at 1 µM per entry
- target: human recombinant serotonin (5-Hydroxytryptamine) 5-HT2C receptor (Homo sapiens)
- Construct: expressed in transfected cells; host or cells: CHO-K1 cells
- assay explanation: Serotonin 5-HT2C radioligand binding ([3H]Mesulergine)
- stated conditions: compound at 1 μM; read-out: Serotonin (1 μM) 5-HT2C, percent inhibition of specific binding
- Protocol: To evaluate in radioligand binding assays the activity of compounds of the invention, human recombinant serotonin (5-Hydroxytryptamine) 5-HT2C receptor expressed in Chinese hamster ovary (CHO-K1) cells (Wolf, W. A. and Schutz, J. S., J. Neurochem. 69:1449, 1997) in a modified Tris-HCl buffer (50 mM Tris-HCl, pH 7.4, 0.1% Ascorbic Acid, 10 μM Pargyline) was used. […] Receptor proteins were filtered and washed, the filters were then counted to determine [^3H]Mesulergine specifically bound. […]
# do not omit the unit; it follows the number

Guide cases for inhibition at 1 µM, answers given:
CN1CCc2c(n(CCc3cncc(Cl)c3)c3ccc(Cl)cc23)CC1: 92%
Cc1ccc2c(c1)c1c(n2/C=C/c2ccc(Cl)cc2)CCN(C)CC1: 98%
COc1ccc(/C(C)=C/n2c3c(c4cc(C)ccc42)CCN(C)CC3)cc1F: 100%

Challenge: Observed inhibition at 1 µM on human recombinant serotonin (5-Hydroxytryptamine) 5-HT2C receptor (Homo sapiens) for C/C(=C\n1c2c(c3cc(Cl)ccc31)CCN(C)CC2)c1ccc(Cl)c(Cl)c1 , please.
Response given: 99%

====

- target: human recombinant adrenergic α1D receptor (Homo sapiens, UniProt P25100)
- Construct: expressed in transfected cells; host or cells: HEK-293 cells
- Sequence (P25100 1-572): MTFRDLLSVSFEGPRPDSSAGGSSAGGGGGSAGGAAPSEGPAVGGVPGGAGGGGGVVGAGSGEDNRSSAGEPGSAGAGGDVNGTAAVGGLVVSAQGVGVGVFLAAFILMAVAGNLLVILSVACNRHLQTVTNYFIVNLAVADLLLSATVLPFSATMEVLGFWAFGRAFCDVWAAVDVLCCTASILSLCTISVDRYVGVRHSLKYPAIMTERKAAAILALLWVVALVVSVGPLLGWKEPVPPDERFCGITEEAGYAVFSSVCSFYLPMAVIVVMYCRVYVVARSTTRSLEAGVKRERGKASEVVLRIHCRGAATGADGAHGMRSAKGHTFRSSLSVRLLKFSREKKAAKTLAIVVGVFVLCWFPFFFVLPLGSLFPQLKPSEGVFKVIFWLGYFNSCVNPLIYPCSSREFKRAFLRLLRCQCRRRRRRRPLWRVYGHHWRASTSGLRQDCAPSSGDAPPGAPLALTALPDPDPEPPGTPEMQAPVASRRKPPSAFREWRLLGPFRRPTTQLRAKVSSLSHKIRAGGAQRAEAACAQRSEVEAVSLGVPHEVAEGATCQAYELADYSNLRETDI
- assay explanation: Adrenergic alpha1D radioligand binding ([3H]Prozosin)
- stated conditions: compound at 1 μM; read-out: Adrenergic (1 μM) α1D, percent inhibition of specific binding
# inhibition at 1 µM per entry
Output spec: scalar in %, unitless text.

Guide cases for inhibition at 1 µM, answers given:
C/C(=C/n1c2c(c3cc(Cl)ccc31)CCN(C)CC2)c1ccc(Cl)cc1Cl: 47
Cc1ccc(C(O)Cn2c3c(c4cc(C)ccc42)CCN(C)CC3)cc1 (stereo not drawn): 95
CN1CCc2c(n(/C=C/c3ccccc3)c3ccc(Cl)cc23)CC1: 98
CN1CCc2c(n(/C=C/c3ccccc3F)c3ccc(Cl)cc23)CC1: 93
CN1CCc2c(n(CC(C)(O)c3ccc(F)cc3)c3ccc(Cl)cc23)CC1 (stereo not drawn): 76
CN1CCc2c(n(CCc3ccncc3)c3ccc(Cl)cc23)CC1: 88
CN1CCc2c(n(CC(O)c3ccccc3)c3ccc(Cl)cc23)CC1 (stereo not drawn): 85
Cc1ccc2c(c1)c1c(n2CC(O)c2ccncc2)CCN(C)CC1 (stereo not drawn): 70

Challenge: Entry COc1ccc(C(O)Cn2c3c(c4cc(C)ccc42)CCN(C)CC3)cc1 (stereo not drawn) : reported inhibition at 1 µM = ?
Response given: 95

Challenge: Try this compound next: C/C(=C\n1c2c(c3cc(Cl)ccc31)CCN(C)CC2)c1ccc(F)cc1
Response given: 100
